Hey, just so you know, these numbers are from PubChem BioAssay (NCI).

- System: TK-10 renal
- experiment: NCI-60 one-dose screen, 48 h (100 = growth as untreated, 0 = no growth, -100 = all killed)
- condition.context: 10 µM unless noted
Compounds without any hit were thinned out: in the full panel of roughly 83,000, 20% have a hit.
Let's look at some molecules and their measured growth.
Numbers only; they are read as %.

Below: 5 molecules and their reported growth.
{"molecule": "O=C(O)c1cccc([N+](=O)[O-])c1", "reading.unit": "%", "growth": 110}
{"molecule": "COC(=O)Nc1nc2ccc(C(=O)c3ccc(F)cc3)cc2[nH]1", "reading.unit": "%", "growth": 17.3}
{"molecule": "CCOC(=O)CCCS(C)(=O)=O", "reading.unit": "%", "growth": 102}
{"molecule": "COc1nc(N)nc2c1ncn2C1OC(CO)CC1O (stereo unspecified)", "reading.unit": "%", "growth": 105}
{"molecule": "CC(C)NC(=O)OCc1c(COC(=O)NC(C)C)c(-c2ccc(Cl)c(Cl)c2)n2c1SCC2", "reading.unit": "%", "growth": 6.38}

In the following, a different molecule is considered.
Qu. Give the value of growth reported for the following: O=C(NCc1ccco1)Nc1c(Cl)cc(Cl)cc1Cl
Ans. 105

###

// growth lookup, one value per entry
- System: 786-0 renal
- experiment: NCI-60 one-dose screen, 48 h (100 = growth as untreated, 0 = no growth, -100 = all killed)
- condition.context: 10 µM
Compounds without any hit were thinned out: in the full panel of roughly 83,000, 20% have a hit.
The figure you give is taken to be in %; do not add the unit.

Worked cases, growth given:
{"compound": "COc1cc([C@@H]2c3cc4c(cc3[C@H](O)[C@H]3COC(=O)[C@H]23)OCO4)cc(OC)c1OC", "growth / %": 12.4}
{"compound": "CC1(C)N=C(N)N=C(N)N1c1cccc(Br)c1", "growth / %": 10.3}
{"compound": "CN(C)c1nc2c([nH]1)c(=O)n(C)c(=O)n2C", "growth / %": 105}

Qu. Determine its reported growth: Cc1ccccc1C1N=C2Oc3ccccc3C=C2C(=O)N1 (centres undefined)
Ans. 37.8

Qu. Let me know recorded growth for CCOC(=O)CCCS(C)(=O)=O , thanks.
Ans. 110

Qu. Let me know recorded growth for CS(=O)CC1=NC(=N)N=C1CS(C)=O (centres undefined) , thanks.
Ans. 102

Qu. State its growth for this compound: Nc1nc(N)c2cc(S(=O)(=O)c3cccc(C(F)(F)F)c3)ccc2n1
Ans. 38.1

Qu. Give the reported value of growth for this record: N#Cc1ccc(OC(=O)Nc2ccc(Cl)c(Cl)c2)cc1
Ans. 89.5

Qu. Tell us which growth value is on record for O=C1OC[C@H]2[C@H](c3ccc(O)c(O)c3)c3cc(O)c(O)cc3C[C@H]12
Ans. 110

Qu. Given the compound O=C(O)C(c1ccccc1)C(O)c1ccccc1 (centres undefined) , write its reported growth.
Ans. 107

Qu. Fill in reported growth for this entry: [O-][N+](=Nc1cccc(Cl)c1)c1cccc(Cl)c1
Ans. 109

Qu. Give the reported value of growth for this record: O=S(=O)(O)c1cc(O)c2c(N=Cc3ccccc3O)c(S(=O)(=O)O)ccc2c1
Ans. 99.8

Qu. Provide measured growth value, entry: CCN(CC)CCCC(C)Nc1ccnc(/C=C/c2ccc(Cl)cc2)c1 (centres undefined)
Ans. 45.2

Qu. Identify measured growth corresponding to C/C(=N/NC(N)=O)c1ccco1
Ans. 99.9

Qu. Kindly indicate its recorded growth. Item: CCOC(=O)C(=O)C=P(c1ccccc1)(c1ccccc1)c1ccccc1
Ans. 101

Qu. Find the measured growth of COc1ccc(C(C)C=O)cc1 (centres undefined) and report it.
Ans. 107

Qu. Give the measured growth for COS(=O)(=O)c1ccc(Br)cc1
Ans. 111
